# Tested on: A2780 cells
# protocol summary: In-Vitro Cell Proliferation Assay (A2780, sulforhodamine B, 72 hours)
# Type: cell-based
# test conditions: SRB
measured quantity: IC50 (nM)

• CC1(C)CC1C(=O)N1CCC2(CC1)CC2CNC(=O)c1cc2ccncc2o1 (stereo not shown) [Example 373] = 7.03
